Target: KDR (human, UniProt P35968 20-1356)
Sequence (P35968 20-1356): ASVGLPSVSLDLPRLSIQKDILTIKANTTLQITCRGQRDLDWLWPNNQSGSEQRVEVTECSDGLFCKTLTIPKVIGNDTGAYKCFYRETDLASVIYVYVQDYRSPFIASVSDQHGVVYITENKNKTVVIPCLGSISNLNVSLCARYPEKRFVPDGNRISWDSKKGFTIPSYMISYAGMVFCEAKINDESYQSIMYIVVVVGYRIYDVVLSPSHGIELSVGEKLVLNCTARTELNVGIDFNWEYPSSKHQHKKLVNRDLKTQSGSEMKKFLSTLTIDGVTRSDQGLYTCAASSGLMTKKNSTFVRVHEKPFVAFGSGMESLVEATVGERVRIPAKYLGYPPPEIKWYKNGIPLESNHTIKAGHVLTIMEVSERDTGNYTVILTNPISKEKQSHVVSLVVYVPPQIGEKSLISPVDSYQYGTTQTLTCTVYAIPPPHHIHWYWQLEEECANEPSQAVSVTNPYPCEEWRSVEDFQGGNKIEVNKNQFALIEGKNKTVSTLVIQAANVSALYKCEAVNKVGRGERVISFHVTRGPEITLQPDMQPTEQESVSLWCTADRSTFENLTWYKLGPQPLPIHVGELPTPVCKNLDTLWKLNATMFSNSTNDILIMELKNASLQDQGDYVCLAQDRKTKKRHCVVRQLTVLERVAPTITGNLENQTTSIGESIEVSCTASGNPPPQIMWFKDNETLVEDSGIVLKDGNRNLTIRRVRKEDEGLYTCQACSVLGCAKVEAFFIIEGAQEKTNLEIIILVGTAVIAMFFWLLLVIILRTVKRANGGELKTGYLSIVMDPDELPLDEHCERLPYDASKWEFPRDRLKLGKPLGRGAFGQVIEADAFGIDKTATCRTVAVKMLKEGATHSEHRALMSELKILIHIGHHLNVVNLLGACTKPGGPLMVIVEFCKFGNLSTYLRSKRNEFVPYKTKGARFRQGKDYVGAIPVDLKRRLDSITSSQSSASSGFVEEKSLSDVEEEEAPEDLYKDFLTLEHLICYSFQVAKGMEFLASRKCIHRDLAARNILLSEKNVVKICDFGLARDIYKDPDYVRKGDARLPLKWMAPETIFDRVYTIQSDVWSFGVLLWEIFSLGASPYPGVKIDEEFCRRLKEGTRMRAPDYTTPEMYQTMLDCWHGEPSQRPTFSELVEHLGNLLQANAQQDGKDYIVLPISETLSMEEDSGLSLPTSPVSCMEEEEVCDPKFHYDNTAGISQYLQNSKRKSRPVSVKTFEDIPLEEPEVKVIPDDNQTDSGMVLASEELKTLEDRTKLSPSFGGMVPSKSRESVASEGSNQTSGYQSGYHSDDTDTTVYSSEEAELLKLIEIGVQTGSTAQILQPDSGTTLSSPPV
Experiment: cell-based or functional assay
# key: entry, value: Activity at 133 nM (% Inhibition), 24-hour Pre-incubation at 37° C., N = 2
Respond numerically; units are % and should not be typed.

>>> result_value("30F6 (antibody, V domains shown) VH: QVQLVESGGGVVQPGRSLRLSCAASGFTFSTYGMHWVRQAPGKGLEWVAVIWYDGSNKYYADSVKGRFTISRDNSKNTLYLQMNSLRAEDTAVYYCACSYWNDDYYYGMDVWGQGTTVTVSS VL: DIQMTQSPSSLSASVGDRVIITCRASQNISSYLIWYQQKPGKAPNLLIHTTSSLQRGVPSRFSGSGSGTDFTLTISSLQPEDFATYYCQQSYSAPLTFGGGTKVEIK")
51

Shift focus to the following entry.
// query Bench note: what Activity at 133 nM (% Inhibition), 24-hour Pre-incubation at 37° C., N = 2 did 31E11 (antibody, V domains shown) VH: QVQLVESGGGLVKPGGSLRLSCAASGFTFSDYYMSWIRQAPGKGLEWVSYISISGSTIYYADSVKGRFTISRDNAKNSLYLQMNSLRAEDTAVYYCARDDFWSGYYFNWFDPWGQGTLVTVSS VL: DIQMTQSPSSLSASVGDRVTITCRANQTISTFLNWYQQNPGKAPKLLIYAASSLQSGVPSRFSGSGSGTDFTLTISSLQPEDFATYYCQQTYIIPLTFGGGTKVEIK show?
// result 48

Values were extracted from patent US20100260765A1.
